Give binding signal for every item shown.
- Target Or Test System: OsWRKY34 (Oryza sativa, UniProt Q0JBA9 1-250)
- Sequence (Q0JBA9 entry or part of it): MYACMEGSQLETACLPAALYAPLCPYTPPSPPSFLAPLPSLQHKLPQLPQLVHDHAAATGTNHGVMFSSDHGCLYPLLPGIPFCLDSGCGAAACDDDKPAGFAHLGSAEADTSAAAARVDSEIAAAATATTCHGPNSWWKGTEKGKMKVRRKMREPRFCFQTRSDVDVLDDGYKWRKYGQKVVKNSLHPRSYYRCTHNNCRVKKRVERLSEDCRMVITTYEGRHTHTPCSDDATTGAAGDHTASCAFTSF
- Run Description: protein-binding microarray (RPBM); PBS, 2% BSA, 51.3 ng/ul salmon testes DNA, 50 uM zinc acetate, 200 nM TF, 25 C, 1 h; high values mean tight binding
- Measurement Conditions: protein: recombinant; tags: N-terminal polyhistidine and DsRed monomer fusion (pET32a); label: CyDye5-dUTP incorporated in the synthesized complementary strand; 3' TTTTT single-stranded linker to array surface; dsDNA, one strand shown
Over roughly 68,000 sequences, “fluorescence intensity (a.u.)” has its median near 9,100; the highest 2% begin near 16,000. This is one part of a sample in which the highest values are shown more often than they occur.

TCTTCACATGCTATTTTGTGTTATTCTTGCCTATAAATGACGGAGTCACCTAGTGCAG : 8310 fluorescence intensity (a.u.)
GAAAGATGATTTGGCAAGTAAATAAATAAGAAAAGAGAAGCGGAGTCACCTAGTGCAG : 62600 fluorescence intensity (a.u.)
GTCACCATCAAAATAGCTTCATATCTTCCCTGGAAATTTTCGGAGTCACCTAGTGCAG : 8160 fluorescence intensity (a.u.)

Go through the items and report each one's binding signal.
1. GGCTAGGTTGTGCGCGCCCTTCTCGATGTAGCAATAGCAACGGAGTCACCTAGTGCAG
2. CATCGGATATTGTATTATGGTGTTGTATGGGTTGTTCGGGCGGAGTCACCTAGTGCAG

Reply:
8520 fluorescence intensity (a.u.)
14000 fluorescence intensity (a.u.)

* * *

- Target Or Test System: OsWRKY34 (Oryza sativa, UniProt Q0JBA9 1-250)
- Run Description: protein-binding microarray (RPBM); PBS, 2% BSA, 51.3 ng/ul salmon testes DNA, 50 uM zinc acetate, 200 nM TF, 25 C, 1 h; high values mean tight binding
- Measurement Conditions: protein: recombinant; tags: N-terminal polyhistidine and DsRed monomer fusion (pET32a); label: CyDye5-dUTP incorporated in the synthesized complementary strand; 3' TTTTT single-stranded linker to array surface; dsDNA, one strand shown
In all, about 68,000 sequences were measured (“fluorescence intensity (a.u.)”: median about 9,100, highest 2% from about 16,000 on). The sample as a whole holds a higher share of the highest values than the screen did.
Measurement Type: binding signal

Here are 5 sequences together with their reported answers.
AAATTATAACGAGGGGTGAGGGGCTAAGAACCTATTTTCGCGGAGTCACCTAGTGCAG : 9700 fluorescence intensity (a.u.)
GCAACTGTGTTTTCAATTCTGCAAATGCTATTCTCTGTTACGGAGTCACCTAGTGCAG : 11800 fluorescence intensity (a.u.)
AGCCAGCCCAAAAGCCACGCCGTCCACTCCATCTCCGCCTCGGAGTCACCTAGTGCAG : 8440 fluorescence intensity (a.u.)
ATCGCCATATAGGCGCCACGTGGAACGAAGACTCGGTCAACGGAGTCACCTAGTGCAG : 9350 fluorescence intensity (a.u.)
CACACCACACACTGATGCAACGGCACTTAAGCGCACGAAGCGGAGTCACCTAGTGCAG : 8060 fluorescence intensity (a.u.)

For the 2 sequences below, give their binding signal values.
1. TCTTCGCAACTCCAAACTTCCCGAGCATCTTATCTTTGCACGGAGTCACCTAGTGCAG
2. CGGGGCCCAACGAGGTGGCGCCGTGGCTGGTGGGGCGGGTCGGAGTCACCTAGTGCAG

Reply:
1. 8990 fluorescence intensity (a.u.)
2. 9270 fluorescence intensity (a.u.)

Need binding signal for each of these sequences.
1. TGCCAATGCCAGGGTTTTCGTCGGTTTTACATAAATTAACCGGAGTCACCTAGTGCAG
2. TGGGAAGTACATATGTAATGTTGTTTATTTATTTTTGTTTCGGAGTCACCTAGTGCAG

Reply:
1: 8500 fluorescence intensity (a.u.); 2: 9860 fluorescence intensity (a.u.)
